system: Panc1 Cells; experiment: ADC cytotoxicity, MTT cell viability assay; type: cell-based, human; details: Homo sapiens, PANC-1; Panc1, MTT, 72 hours (FIG. 28)
ENDPOINT: IC50 (nM)

1) Nc1ccn([C@@H]2O[C@H](CO)[C@@H](O)C2(F)F)c(=O)n1 [Gemcitabine]
700

---

test system: KV2 cells; assay: ADC cytotoxicity in normal cell lines, MTT assay; settings: read-out: IC50 / cytotoxicity; KV2, additional characterization (FIG. 41)
ENDPOINT: IC50 (nM)

1) COc1cc2cc(c1Cl)N(C)C(=O)C[C@H](OC(=O)[C@H](C)N(C)C(=O)CCS)[C@]1(C)O[C@H]1[C@H](C)[C@@H]1C[C@@](O)(NC(=O)O1)[C@H](OC)/C=C/C=C(\C)C2
289

---

system: mIMCD; assay: ADC cytotoxicity in normal cell lines, MTT assay; details: read-out: IC50 / cytotoxicity, additional characterization (FIG. 41)
ENDPOINT: IC50 (nM)

1. COc1cc2cc(c1Cl)N(C)C(=O)C[C@H](OC(=O)[C@H](C)N(C)C(=O)CCS)[C@]1(C)O[C@H]1[C@H](C)[C@@H]1C[C@@](O)(NC(=O)O1)[C@H](OC)/C=C/C=C(\C)C2
3

---

system: BJ fibroblasts; experiment: ADC cytotoxicity in normal cell lines, MTT assay; conditions: read-out: IC50 / cytotoxicity, MTT (FIG. 32), NS = not significantly different from 100% viability of control
ENDPOINT: IC50 (nM)

1. COc1cc2cc(c1Cl)N(C)C(=O)C[C@H](OC(=O)[C@H](C)N(C)C(=O)CCS)[C@]1(C)O[C@H]1[C@H](C)[C@@H]1C[C@@](O)(NC(=O)O1)[C@H](OC)/C=C/C=C(\C)C2 [Mertansine, mertansine]
16.8

The origin of these recorded values is patent US10953107B2.
